# CC90 at 72 h values compiled below
assay: Cytotoxicity against human THP1 cells after 72 hrs by MTT assay; assay type: cell-based; details: THP-1 cells
Write the value in µM as a bare number.

O[C@@H]1Cc2ccc3ccccc3c2N[C@H](c2ccc(Cl)cc2Cl)C1    92.7

# query: CC90 at 72 h of entry `O[C@@H]1Cc2ccc3ccccc3c2N[C@H](c2ccc(Cl)cc2)C1`
122

----------
test: Selectivity index, ratio of CC50 for african green monkey Vero cells to IC50 for Trypanosoma cruzi 320I04 epimastigotes; assay type: functional
Mark true (1) only when Ratio CC50/IC50 stays strictly below 20. Values equal to the cut-off are false (0).

Below, 8 molecules whose answers are already recorded.
Clc1cccc([C@@H]2C[C@@H]3Cc4ccc5ccccc5c4N2O3)c1    false (0)
Cc1cccc([C@@H]2C[C@H](O)Cc3ccc4ccccc4c3N2)c1    true (1)
O[C@@H]1Cc2ccc3ccccc3c2N[C@H](c2ccc(Cl)cc2Cl)C1    false (0)
O[C@@H]1Cc2ccc3ccccc3c2N[C@H](c2ccc(F)cc2)C1    false (0)
Clc1ccccc1[C@@H]1C[C@@H]2Cc3ccc4ccccc4c3N1O2    true (1)
O[C@@H]1Cc2ccc3ccccc3c2N[C@H](c2ccccc2)C1    true (1)
O[C@@H]1Cc2ccc3ccccc3c2N[C@H](c2cccc(Cl)c2)C1    false (0)
Clc1ccc([C@@H]2C[C@@H]3Cc4ccc5ccccc5c4N2O3)c(Cl)c1    true (1)

As a next step, examine the molecule that follows.
Problem: For the molecule `O=[N+]([O-])c1ccccc1[C@@H]1C[C@@H]2Cc3ccc4ccccc4c3N1O2` , is Ratio CC50/IC50 under 20?
false (0)

----------
test: Selectivity index, ratio of CC50 for african green monkey Vero cells to IC50 for Trypanosoma cruzi 320I04 epimastigotes; format: functional
parameter: Ratio CC50/IC50
Provide a numeric answer; units are not to be included.

Here's what some known entries look like.
COc1cccc([C@@H]2C[C@H](O)Cc3ccc4ccccc4c3N2)c1    7
O[C@@H]1Cc2ccc3ccccc3c2N[C@H](c2ccc(Cl)cc2)C1    29.7

Switching to the query record.
Using the record for `O[C@@H]1Cc2ccc3ccccc3c2N[C@H](c2ccccc2Cl)C1` , report its Ratio CC50/IC50.
193

----------
experiment: Cytotoxicity against human THP1 cells after 72 hrs by MTT assay; type: cell-based; details: THP-1 cells
Reported log10(CC50 at 72 h) values are given for each entry in this list.
Response schema: value (number) is log10 of CC50 at 72 h in units of µM.

Examples with their reported log10(CC50 at 72 h) follow.
O[C@@H]1Cc2ccc3ccccc3c2N[C@H](c2ccc(Cl)cc2)C1    1.56
O[C@@H]1Cc2ccc3ccccc3c2N[C@H](c2ccc(Cl)cc2Cl)C1    1.90
O[C@@H]1Cc2ccc3ccccc3c2N[C@H](c2ccccc2Cl)C1    1.82
O[C@@H]1Cc2ccc3ccccc3c2N[C@H](c2ccccc2)C1    2.01
C[C@@H]1[C@H](O)[C@@H](C)/C=C/C=C/C=C/C=C/C=C/C=C/C=C/[C@H](O[C@@H]2O[C@H](C)[C@@H](O)[C@H](N)[C@@H]2O)C[C@@H]2O[C@](O)(C[C@@H](O)C[C@@H](O)[C@H](O)CC[C@@H](O)C[C@@H](O)CC(=O)O[C@H]1C)C[C@H](O)[C@H]2C(=O)O    -0.77

# ---- query molecule ----
Could you share which log10(CC50 at 72 h) value was measured for `COc1cccc([C@@H]2C[C@H](O)Cc3ccc4ccccc4c3N2)c1` ?
2.29

----------
assay: Cytotoxicity against human THP1 cells after 72 hrs by MTT assay; format: cell-based; conditions: THP-1 cells
parameter: CC90 at 72 h

Clc1ccc([C@@H]2C[C@@H]3Cc4ccc5ccccc5c4N2O3)cc1    > 300 µM
Brc1ccc([C@@H]2C[C@@H]3Cc4ccc5ccccc5c4N2O3)cc1    > 250 µM
O=[N+]([O-])c1ccccc1[C@@H]1C[C@@H]2Cc3ccc4ccccc4c3N1O2    > 300 µM
Fc1ccc([C@@H]2C[C@@H]3Cc4ccc5ccccc5c4N2O3)cc1    > 300 µM
O[C@@H]1Cc2ccc3ccccc3c2N[C@H](c2ccccc2)C1    > 300 µM

// query CC90 at 72 h value for entry `O[C@@H]1Cc2ccc3ccccc3c2N[C@H](c2cccc(Br)c2)C1`
> 250 µM

Sample `C[C@@H]1[C@H](O)[C@@H](C)/C=C/C=C/C=C/C=C/C=C/C=C/C=C/[C@H](O[C@@H]2O[C@H](C)[C@@H](O)[C@H](N)[C@@H]2O)C[C@@H]2O[C@](O)(C[C@@H](O)C[C@@H](O)[C@H](O)CC[C@@H](O)C[C@@H](O)CC(=O)O[C@H]1C)C[C@H](O)[C@H]2C(=O)O` — what was its CC90 at 72 h?
0.18 µM

----------
test system: Leishmania chagasi; assay: Antiparasitic activity against Leishmania chagasi MHOM/BR/74/PP75 promastigotes infected in human THP1 cells after 72 hrs; details: MHOM/BR/74/PP75, THP-1, 72 h
parameter: pIC50
Please express pIC50 as -log10 of the molar concentration.

Cc1cccc([C@@H]2C[C@@H]3Cc4ccc5ccccc5c4N2O3)c1    4.45

Consider the molecule shown here: `C[C@@H]1[C@H](O)[C@@H](C)/C=C/C=C/C=C/C=C/C=C/C=C/C=C/[C@H](O[C@@H]2O[C@H](C)[C@@H](O)[C@H](N)[C@@H]2O)C[C@@H]2O[C@](O)(C[C@@H](O)C[C@@H](O)[C@H](O)CC[C@@H](O)C[C@@H](O)CC(=O)O[C@H]1C)C[C@H](O)[C@H]2C(=O)O` What is its recorded pIC50?
8.00

What value of measured pIC50 is listed for `O[C@@H]1Cc2ccc3ccccc3c2N[C@H](c2cccc(Cl)c2)C1` ?
5.22

# lookup: pIC50 of `Cc1cccc([C@@H]2C[C@H](O)Cc3ccc4ccccc4c3N2)c1`
4.38

Looking for the measured pIC50 of `Fc1ccc([C@@H]2C[C@@H]3Cc4ccc5ccccc5c4N2O3)cc1` , can you help?
4.15

----------
test system: Trypanosoma cruzi; test: Antiparasitic activity against Trypanosoma cruzi 320I04 intracellular amastigotes infected in african green monkey Vero cells after 72 hrs; format: functional, organism-based; conditions: 320I04, Vero
parameter: pIC50
pIC50 field: float, defined as -log10 of concentration (mol/L).

O[C@@H]1Cc2ccc3ccccc3c2N[C@H](c2ccc(Br)cc2)C1    5.00
O[C@@H]1Cc2ccc3ccccc3c2N[C@H](c2ccccc2)C1    4.71
O[C@@H]1Cc2ccc3ccccc3c2N[C@H](c2ccccc2Cl)C1    4.97
COc1cccc([C@@H]2C[C@H](O)Cc3ccc4ccccc4c3N2)c1    4.61
O[C@@H]1Cc2ccc3ccccc3c2N[C@H](c2cccc(Cl)c2)C1    4.63
Clc1ccc([C@@H]2C[C@@H]3Cc4ccc5ccccc5c4N2O3)cc1    4.79
COc1cccc([C@@H]2C[C@@H]3Cc4ccc5ccccc5c4N2O3)c1    4.05
Cc1cccc([C@@H]2C[C@H](O)Cc3ccc4ccccc4c3N2)c1    4.48

Give pIC50 (Trypanosoma cruzi) of the following compound: `Brc1cccc([C@@H]2C[C@@H]3Cc4ccc5ccccc5c4N2O3)c1`
4.74

----------
tested on: Trypanosoma cruzi; assay: Antiparasitic activity against Trypanosoma cruzi 320I04 epimastigotes […] after 72 hrs; type: functional, organism-based
Mark label 1 for IC90 under 40 µM, label 0 if at or over.

Past entries and their recorded results:
Clc1ccc([C@@H]2C[C@@H]3Cc4ccc5ccccc5c4N2O3)c(Cl)c1    label 0
CC1CS(=O)(=O)CCN1/N=C/c1ccc([N+](=O)[O-])o1 (configuration not stated)    label 1
Brc1cccc([C@@H]2C[C@@H]3Cc4ccc5ccccc5c4N2O3)c1    label 0
Clc1ccccc1[C@@H]1C[C@@H]2Cc3ccc4ccccc4c3N1O2    label 0
O[C@@H]1Cc2ccc3ccccc3c2N[C@H](c2cccc(Br)c2)C1    label 1
O[C@@H]1Cc2ccc3ccccc3c2N[C@H](c2ccc(Cl)cc2)C1    label 1
O[C@@H]1Cc2ccc3ccccc3c2N[C@H](c2ccc(Cl)cc2Cl)C1    label 1
Cc1cccc([C@@H]2C[C@H](O)Cc3ccc4ccccc4c3N2)c1    label 0

Here's an entry: `Clc1cccc([C@@H]2C[C@@H]3Cc4ccc5ccccc5c4N2O3)c1` . Is its IC90 below 40 µM?
label 0

Dear reviewer, please state whether `O[C@@H]1Cc2ccc3ccccc3c2N[C@H](c2ccc(F)cc2)C1` has IC90 strictly beneath 40 µM.
label 1

----------
assay: Cytotoxicity against human THP1 cells after 72 hrs by MTT assay; assay type: cell-based; settings: THP-1 cells
# key: entry, value: CC90 at 72 h

Example compounds with recorded CC90 at 72 h:
c1ccc([C@@H]2C[C@@H]3Cc4ccc5ccccc5c4N2O3)cc1    > 350 µM
Cc1cccc([C@@H]2C[C@@H]3Cc4ccc5ccccc5c4N2O3)c1    > 300 µM
O[C@@H]1Cc2ccc3ccccc3c2N[C@H](c2ccccc2Cl)C1    > 300 µM
O[C@@H]1Cc2ccc3ccccc3c2N[C@H](c2ccc(Br)cc2)C1    > 200 µM
O[C@@H]1Cc2ccc3ccccc3c2N[C@H](c2cccc(Cl)c2)C1    177 µM

What CC90 at 72 h value was documented for this compound, `O[C@@H]1Cc2ccc3ccccc3c2N[C@H](c2ccc(F)cc2)C1` ?
> 250 µM

What does the data say about its CC90 at 72 h? Entry: `COc1cccc([C@@H]2C[C@H](O)Cc3ccc4ccccc4c3N2)c1`
> 300 µM

Which CC90 at 72 h is reported for this compound? `Clc1ccccc1[C@@H]1C[C@@H]2Cc3ccc4ccccc4c3N1O2`
> 300 µM

Suppose we examine the compound `Cc1cccc([C@@H]2C[C@H](O)Cc3ccc4ccccc4c3N2)c1` ; what CC90 at 72 h value has been reported?
116 µM

Suppose we examine the compound `Clc1cccc([C@@H]2C[C@@H]3Cc4ccc5ccccc5c4N2O3)c1` ; what CC90 at 72 h value has been reported?
> 300 µM
